# System: MDA-MB-231
# method summary: Cytotoxicity against human MDA-MB-231 cells after 72 hrs by SRB assay
# Assay type: functional
# conditions: MDA-MB-231, 72 h
Rule: measured GI50 below 9 µM gets rule met; anything equal to or greater than 9 µM gets rule not met.

>>> qualitative_label("CC(=O)/N=C1\\NCCC(c2c[nH]c3cc(Br)ccc23)N1 (racemic)")
"rule met"
>>> qualitative_label("Cn1cc(C2CCN=C(N)N2)c2cc(Br)ccc21 (racemic)")
"rule not met"
>>> qualitative_label("Cn1cc(C2CC(=O)N=C(N)N2)c2ccc(Br)cc21 (racemic)")
"rule met"
>>> qualitative_label("CC(=O)/N=C1\\NCCC(c2cn(C)c3ccccc23)N1 (racemic)")
"rule not met"
>>> qualitative_label("CC(=O)/N=C1\\NCCC(c2cn(C)c3ccc(Br)cc23)N1 (racemic)")
"rule met"
>>> qualitative_label("Cn1cc(C2CCN=C(N)N2)c2ccccc21 (racemic)")
"rule met"
>>> qualitative_label("CC(=O)/N=C1\\NCCC(c2cn(C)c3cc(Br)ccc23)N1 (racemic)")
"rule met"
>>> qualitative_label("CC(=O)/N=C1\\NCCC(c2c[nH]c3ccc(Br)cc23)N1 (racemic) [APLICYANIN B]")
"rule met"
>>> qualitative_label("COn1cc(C2CCN=C(N)N2)c2cc(Br)c(Br)cc21 (racemic) [APLICYANIN E]")
"rule not met"
>>> qualitative_label("NC1=NCCC(c2c[nH]c3cc(Br)ccc23)N1 (racemic)")
"rule not met"
>>> qualitative_label("NC1=NCCC(c2c[nH]c3ccc(Br)cc23)N1 (racemic) [APLICYANIN A]")
"rule met"

These measurements were taken from ChEMBL document CHEMBL1154620.
